Biological target: human Siglec-7 expressed on human cells (primary monocytes, dendritic cells, macrophages, NK cells, … (human, UniProt Q9Y286 19-467))
Sequence (Q9Y286 19-467): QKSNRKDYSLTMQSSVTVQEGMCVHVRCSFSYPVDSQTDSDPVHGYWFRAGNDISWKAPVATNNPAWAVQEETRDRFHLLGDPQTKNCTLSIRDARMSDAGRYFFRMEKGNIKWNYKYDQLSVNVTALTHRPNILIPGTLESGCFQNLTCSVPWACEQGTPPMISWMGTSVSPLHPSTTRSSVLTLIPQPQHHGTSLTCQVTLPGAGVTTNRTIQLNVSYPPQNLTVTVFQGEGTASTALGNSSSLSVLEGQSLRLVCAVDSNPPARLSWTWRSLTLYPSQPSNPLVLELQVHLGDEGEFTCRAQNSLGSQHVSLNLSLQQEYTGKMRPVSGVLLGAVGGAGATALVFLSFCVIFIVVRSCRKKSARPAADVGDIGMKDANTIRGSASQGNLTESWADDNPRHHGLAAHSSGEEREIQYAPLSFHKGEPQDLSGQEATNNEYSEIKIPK
Test: cell-based or functional assay
Outcome measure: Percent Siglec-7 Surface Expression, Monocytes (%)
Give bare numbers, in %.

anti-Siglec-7 antibody 4A1 (antibody, V domains shown, Variable domains assembled from FR and CDR entries) VH: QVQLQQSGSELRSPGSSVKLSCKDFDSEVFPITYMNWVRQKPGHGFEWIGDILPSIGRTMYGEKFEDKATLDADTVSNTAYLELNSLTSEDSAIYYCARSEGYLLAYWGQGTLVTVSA VL: DVVMTQTPLSLPVSLGDQASISCRSSQSLVHSTGNIYLHWYLQKPGQSPKLLIYKVSNRFZGVPDRFSGSGSGTDFTLKISRVEAEDLGVYFCSQNTHVPYTFGGGTKLEIK | 39.8
anti-Siglec-7 antibody 10B5 (antibody, V domains shown, that light chain holds several Z and differs in its CDRs from S7-10B5.1 / 10B5L1; also called S7-10B5; mAb S7-10B5) VH: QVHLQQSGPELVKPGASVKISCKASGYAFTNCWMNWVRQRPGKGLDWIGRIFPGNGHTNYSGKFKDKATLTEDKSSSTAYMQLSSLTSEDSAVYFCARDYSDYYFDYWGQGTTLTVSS VL: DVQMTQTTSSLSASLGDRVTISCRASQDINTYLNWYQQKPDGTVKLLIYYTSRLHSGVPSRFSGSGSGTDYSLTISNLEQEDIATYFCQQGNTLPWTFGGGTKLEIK | 6.7
anti-Siglec-7 antibody 1A12 (antibody, V domains shown, also called 1Al2) VH: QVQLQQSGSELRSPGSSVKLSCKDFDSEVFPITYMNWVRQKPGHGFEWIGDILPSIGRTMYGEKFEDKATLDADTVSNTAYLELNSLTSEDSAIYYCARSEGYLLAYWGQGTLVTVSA VL: DVZMTQTPLSLPVSLGDQASISCRSSQSLVHSTGNTYLHWYLQKPGQSPKLLIYKVSNRFSGVPDRFSGSGAGTDFTLKISRVEAEDLGVYFCSQNTHVPYTFGGGTKLEIK | 39.9
anti-Siglec-7 antibody 7F12 (antibody, V domains shown, Variable domains assembled from FR and CDR entries) VH: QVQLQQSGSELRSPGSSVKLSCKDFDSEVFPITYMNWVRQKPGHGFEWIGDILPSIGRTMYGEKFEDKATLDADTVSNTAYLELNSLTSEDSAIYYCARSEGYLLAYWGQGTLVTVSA VL: DVLMTQTPLSLPVSLGDQASISCRSSQSLVHSTGNTYLHWYLQKPGQSPKLLIYKVSNRFSGVPDRFSGSGAGTDFTLKISRVEAEDLGVYFCSQNTHVPYTFGGGTKLEIK | 39

Record Percent Siglec-7 Surface Expression, Monocytes per entry; entries follow.
1. anti-Siglec-7 antibody 7E11 (antibody, V domains shown, Variable domains assembled from FR and CDR entries) VH: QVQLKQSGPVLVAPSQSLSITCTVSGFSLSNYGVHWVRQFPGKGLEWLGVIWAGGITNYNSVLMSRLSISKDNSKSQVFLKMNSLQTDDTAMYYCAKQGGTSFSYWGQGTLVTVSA VL: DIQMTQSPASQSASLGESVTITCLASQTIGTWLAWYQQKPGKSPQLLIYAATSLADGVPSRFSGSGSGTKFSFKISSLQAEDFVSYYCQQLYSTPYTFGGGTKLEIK
2. anti-Siglec-7 antibody 10G8 (antibody, V domains shown, Variable domains assembled from FR and CDR entries) VH: EVKLVEFGGALVKPGGSLKLSCAALGFTFSTYAMFRVRQTPEKREEGVASISSGGRYTYYPDSAKDRHPIFRDNARNTLYLQMSSLRSKDTAMYYCVRHSYGSSYWYLDVWGAGTTVTVSS VL: DIQMTQFPATLSGTPGDRVZLSRRASQSIREYLHWYQQKSHESPRLZIKFASQSICGIPSRFSGSGSGSDFTLSINTVEPEDVGVYYCQKAHNFPYTFGGGTKLEIK
3. anti-Siglec-7 antibody 2G4 (antibody, V domains shown, Variable domains assembled from FR and CDR entries) VH: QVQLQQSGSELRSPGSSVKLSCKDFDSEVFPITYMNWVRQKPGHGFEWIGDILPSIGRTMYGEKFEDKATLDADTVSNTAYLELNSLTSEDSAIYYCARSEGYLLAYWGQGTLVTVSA VL: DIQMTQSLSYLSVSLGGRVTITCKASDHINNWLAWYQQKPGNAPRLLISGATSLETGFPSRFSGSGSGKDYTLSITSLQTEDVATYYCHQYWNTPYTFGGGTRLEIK

1: 8.1; 2: 30.9; 3: 29.3
